B1: RSAD1 (parent)
chain: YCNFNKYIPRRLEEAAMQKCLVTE

variants of: B1; test: protein stability index of a GFP-peptide fusion (GPS, HEK-293T) (PSI 1-6); higher = more stable; conditions: c terminus: a fixed tail appended;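 note: lentivirally expressed fusions sorted by FACS into six bins by GFP to DsRed ratio, PSI derived from sequencing read proportions per bin multiplied by bin number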
# protein stability index listing for each entry below
// print number alone

Worked cases, protein stability index given:
| VARIANT_SPEC | QUANTITATIVE_READOUT |
| --- | --- |
| N5I | 2.17 |
| Y1E | 2.49 |
| C2R | 2.42 |

I am curious: what protein stability index value has been reported for Y7E ?
3.1

I am curious: what protein stability index value has been reported for C20T ?
1.89

I am curious: what protein stability index value has been reported for E24Q ?
2.38

I am curious: what protein stability index value has been reported for A15K ?
1.69
